- Test system: Escherichia coli TOP10
- ASSAY REMARKS: shrunken log2 fold change of peptide-encoding DNA abundance (4.5 h post-induction vs induction); higher = less antimicrobial activity (less host growth inhibition)
- CONDITION SUMMARY: time post-induction: 4.5 h; library: site-saturation at positions 5, 18, 19, 20
Recorded shrunken log2 fold change by entry
Please respond with just the number, no unit label.

Consider the following illustrative entries.
- SEQUENCE INPUT: "RRIRVRPPRLPRPRPRPVEIPRP"
  VALUE REPORTED: -0.0612
- SEQUENCE INPUT: "RRIRPRPPRLPRPRPRPNNGPRP"
  VALUE REPORTED: -0.335
- SEQUENCE INPUT: "RRIRYRPPRLPRPRPRPWILPRP"
  VALUE REPORTED: -0.482

Supply measured shrunken log2 fold change of RRIRCRPPRLPRPRPRPAALPRP in your reply.
0.219

Tell me shrunken log2 fold change reported for RRIRHRPPRLPRPRPRPDIWPRP
-0.11

Look up and state reported shrunken log2 fold change for RRIRCRPPRLPRPRPRPHMLPRP
-0.431

Determine its reported shrunken log2 fold change: RRIRTRPPRLPRPRPRPANAPRP
-0.0933

Answer with the recorded shrunken log2 fold change for the sequence listed here: RRIRHRPPRLPRPRPRPLPDPRP
-0.299

Please give measured shrunken log2 fold change of the following entry: RRIRLRPPRLPRPRPRPATVPRP
-0.138

State, in one line, measured shrunken log2 fold change of RRIRVRPPRLPRPRPRPQQMPRP
0.0393

Indicate the recorded shrunken log2 fold change value for this sequence: RRIRQRPPRLPRPRPRPRESPRP
0.0584

Tell me measured shrunken log2 fold change for RRIRKRPPRLPRPRPRPGDWPRP please.
0.485

* * *

- Tested on: Escherichia coli TOP10
- ASSAY REMARKS: shrunken log2 fold change of peptide-encoding DNA abundance (4.5 h post-induction vs induction); higher = less antimicrobial activity (less host growth inhibition)
- CONDITION SUMMARY: time post-induction: 4.5 h; library: site-saturation at positions 5, 18, 19, 20
Item-by-item account of shrunken log2 fold change
I'd appreciate a reply containing only the number, no unit.

Item RRIRERPPRLPRPRPRPMGGPRP : provide shrunken log2 fold change
0.0346

Given the sequence RRIRNRPPRLPRPRPRPIIYPRP , write its reported shrunken log2 fold change.
-1.06

Dear colleague, please send me the reported shrunken log2 fold change for RRIRHRPPRLPRPRPRPGMCPRP when you can.
-0.493

Return shrunken log2 fold change for the following sequence: RRIRSRPPRLPRPRPRPIQSPRP
-0.0288

Annotate the sequence RRIRERPPRLPRPRPRPICEPRP with its measured shrunken log2 fold change.
0.0105

Give the value of shrunken log2 fold change reported for the following: RRIRVRPPRLPRPRPRPGVWPRP
1.88

Retrieve shrunken log2 fold change measured for RRIRARPPRLPRPRPRPFGRPRP and print it.
0.547

Please give the documented shrunken log2 fold change of RRIRKRPPRLPRPRPRPRRLPRP
0.0159

Kindly indicate its recorded shrunken log2 fold change. Item: RRIRYRPPRLPRPRPRPAQHPRP
-0.515

Read the entry RRIRGRPPRLPRPRPRPHVSPRP and write its reported shrunken log2 fold change.
0.396

Please indicate shrunken log2 fold change recorded for RRIRGRPPRLPRPRPRPTRDPRP
0.965

* * *

- Tested on: Escherichia coli TOP10
- ASSAY REMARKS: shrunken log2 fold change of peptide-encoding DNA abundance (4.5 h post-induction vs induction); higher = less antimicrobial activity (less host growth inhibition)
- CONDITION SUMMARY: time post-induction: 4.5 h; library: site-saturation at positions 5, 18, 19, 20
Give Criterion met when the value for shrunken log2 fold change is at least -0.03. Give Criterion not met when it is less.

- SEQUENCE INPUT: "RRIRNRPPRLPRPRPRPGYCPRP"
  ASSIGNED LABEL: "Criterion not met"

Could you verify whether the entry RRIRFRPPRLPRPRPRPAFFPRP shows shrunken log2 fold change of no less than -0.03?
Criterion met

Decide: shrunken log2 fold change of RRIRSRPPRLPRPRPRPRGFPRP >= -0.03?
Criterion met

Can RRIRSRPPRLPRPRPRPMDWPRP be said to have shrunken log2 fold change at or above -0.03?
Criterion not met

Threshold query (shrunken log2 fold change >= -0.03) on RRIRHRPPRLPRPRPRPTYCPRP
Criterion not met

Dear colleague, could you confirm whether RRIRRRPPRLPRPRPRPRPHPRP has shrunken log2 fold change at or above -0.03?
Criterion met

* * *

- System: Escherichia coli TOP10
- ASSAY REMARKS: shrunken log2 fold change of peptide-encoding DNA abundance (4.5 h post-induction vs induction); higher = less antimicrobial activity (less host growth inhibition)
- CONDITION SUMMARY: time post-induction: 4.5 h; library: site-saturation at positions 5, 18, 19, 20
Class criterion met: shrunken log2 fold change at least -0.1. Class criterion not met: shrunken log2 fold change below -0.1.

Some solved entries appear below for comparison.
- SEQUENCE INPUT: "RRIRKRPPRLPRPRPRPYMWPRP"
  ASSIGNED LABEL: "criterion met"
- SEQUENCE INPUT: "RRIRHRPPRLPRPRPRPVLMPRP"
  ASSIGNED LABEL: "criterion not met"
- SEQUENCE INPUT: "RRIRWRPPRLPRPRPRPNCRPRP"
  ASSIGNED LABEL: "criterion met"
- SEQUENCE INPUT: "RRIRPRPPRLPRPRPRPIDVPRP"
  ASSIGNED LABEL: "criterion not met"
- SEQUENCE INPUT: "RRIRRRPPRLPRPRPRPYTYPRP"
  ASSIGNED LABEL: "criterion met"

Decide: is the reported value of shrunken log2 fold change for RRIRCRPPRLPRPRPRPDFNPRP equal to or greater than -0.1?
criterion not met

Exam item: decide whether the reported shrunken log2 fold change for RRIRVRPPRLPRPRPRPFPMPRP is at least -0.1.
criterion not met

State whether the measured shrunken log2 fold change reaches -0.1, counting equality as reaching it, for RRIRWRPPRLPRPRPRPLKYPRP
criterion not met

// inclusive: shrunken log2 fold change at least -0.1? input: RRIRKRPPRLPRPRPRPRIMPRP
criterion met

Determine whether this sequence has shrunken log2 fold change no lower than -0.1: RRIRPRPPRLPRPRPRPDPMPRP
criterion met

Please indicate if the recorded shrunken log2 fold change for RRIRMRPPRLPRPRPRPTNWPRP meets or exceeds -0.1.
criterion met

Tell me whether shrunken log2 fold change is at least -0.1 here: RRIRPRPPRLPRPRPRPAKNPRP
criterion met

Test whether the sequence RRIRMRPPRLPRPRPRPQEKPRP records shrunken log2 fold change of -0.1 or higher.
criterion met

Does RRIRHRPPRLPRPRPRPRRSPRP have a reported shrunken log2 fold change of at least -0.1?
criterion met

Could you verify whether the entry RRIRMRPPRLPRPRPRPIQWPRP shows shrunken log2 fold change of no less than -0.1?
criterion met

# check: shrunken log2 fold change of RRIRNRPPRLPRPRPRPWVIPRP is greater than or equal to -0.1
criterion not met

Determine whether measured shrunken log2 fold change meets or exceeds -0.1 for RRIRRRPPRLPRPRPRPVVRPRP
criterion met

Could you please find out whether RRIRDRPPRLPRPRPRPEAVPRP has shrunken log2 fold change that meets -0.1 or exceeds it?
criterion met

Could you please find out whether RRIRCRPPRLPRPRPRPCFVPRP has shrunken log2 fold change that meets -0.1 or exceeds it?
criterion not met

Record RRIRTRPPRLPRPRPRPHWPPRP ; criterion: shrunken log2 fold change no lower than -0.1. Met?
criterion met

Does the sequence RRIRQRPPRLPRPRPRPDYLPRP have recorded shrunken log2 fold change that is -0.1 or more?
criterion not met

Could you tell me if the measured shrunken log2 fold change of RRIRFRPPRLPRPRPRPIWVPRP reaches -0.1 or more?
criterion not met

Dear colleague, could you confirm whether RRIRVRPPRLPRPRPRPMHGPRP has shrunken log2 fold change at or above -0.1?
criterion met

Would you say RRIRTRPPRLPRPRPRPNKEPRP shows shrunken log2 fold change at minimum -0.1?
criterion met

Entry RRIRKRPPRLPRPRPRPSILPRP : is its shrunken log2 fold change no less than -0.1?
criterion not met

Please check the record RRIRRRPPRLPRPRPRPGNWPRP and state if its shrunken log2 fold change is at or above -0.1.
criterion met

Check this sequence for shrunken log2 fold change at or above -0.1: RRIRNRPPRLPRPRPRPAPCPRP
criterion met

* * *

- Tested on: Escherichia coli TOP10;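 also: peptides expressed intracellularly from a pBAD plasmid library in pooled LB shake-flask culture, induced with 0.3% L-arabinose, DNA abundance read by NGS, three biological replicates, DESeq2 with apeglm shrinkage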
- ASSAY REMARKS: shrunken log2 fold change of peptide-encoding DNA abundance (4.5 h post-induction vs induction); higher = less antimicrobial activity (less host growth inhibition)
- CONDITION SUMMARY: time post-induction: 4.5 h; library: site-saturation at positions 5, 18, 19, 20
Measured shrunken log2 fold change, listed per entry.
Enter the number alone.

Consider the following illustrative entries.
- SEQUENCE INPUT: "RRIRQRPPRLPRPRPRPQNPPRP"
  shrunken log2 fold change: -0.0336
- SEQUENCE INPUT: "RRIRARPPRLPRPRPRPKYCPRP"
  shrunken log2 fold change: -0.464
- SEQUENCE INPUT: "RRIRARPPRLPRPRPRPMWVPRP"
  shrunken log2 fold change: -0.0205
- SEQUENCE INPUT: "RRIRLRPPRLPRPRPRPSRAPRP"
  shrunken log2 fold change: 0.0241
- SEQUENCE INPUT: "RRIRCRPPRLPRPRPRPRPGPRP"
  shrunken log2 fold change: 0.733
- SEQUENCE INPUT: "RRIRDRPPRLPRPRPRPLYVPRP"
  shrunken log2 fold change: -0.17
- SEQUENCE INPUT: "RRIRGRPPRLPRPRPRPFQTPRP"
  shrunken log2 fold change: 0.013
- SEQUENCE INPUT: "RRIRVRPPRLPRPRPRPLFTPRP"
  shrunken log2 fold change: -0.448

Give reported shrunken log2 fold change value for RRIRERPPRLPRPRPRPCGRPRP
-0.0316

// fetch shrunken log2 fold change given entry RRIRHRPPRLPRPRPRPMTLPRP
-0.0135

Could you please provide reported shrunken log2 fold change for RRIRKRPPRLPRPRPRPPMNPRP ? Thanks!
0.123

Look up shrunken log2 fold change of RRIRDRPPRLPRPRPRPFKWPRP and report it.
-0.0034

Report shrunken log2 fold change for RRIRKRPPRLPRPRPRPTLQPRP
0.594

Origin of the recorded values: the supplement of paper PMC9112550
